Item-by-item account of IC50
Tested on: isolated rat portal vein
ASSAY EXPLANATION: Isolated rat portal vein: inhibition of spontaneous contractile activities
Design: species or system rat (male Sprague Dawley)
TEST PARAMETERS: 0.25 h, 37° C., 15 min per concentration
Numbers only here, please. The scale is nM.

Some solved cases for reference:
- MOLECULE: "CC1(C)C=C(n2ccccc2=O)c2cc(Cl)ccc2O1 [SR 45435]"
  IC50 / nM: 8
- MOLECULE: "CC1(C)Oc2ccc(C#N)cc2[C@@H](N2CCCC2=O)[C@@H]1O (relative stereo) [Product A, reference compound]"
  IC50 / nM: 68
- MOLECULE: "CC(=O)c1ccc2c(c1)C(n1ccccc1=O)=CC(C)(C)O2 [SR 45510]"
  IC50 / nM: 11

Now examine the next entry.
Given the molecule CC(=O)c1ccc2c(c1)[C@@H](n1ccccc1=O)[C@H](O)C(C)(C)O2 (relative stereo) [Product G] , what is its reported IC50?
190
